Reference for the values: PubChem BioAssay (NCI)

Tested on: MDA-MB-231 breast
assay: NCI tumour cell line growth inhibition, 48 h
observable: TGI

Value lookup for TGI; key = COc1ccc(-n2c3c(c4c(CN5CCOCC5)c(O)ccc42)CCc2ccccc2C3=O)cc1
> 100 µM

Entry NS(=O)(=O)c1cccc(N=Cc2c(O)[nH]c3ccccc23)c1 please
> 25 µM

Also Cc1nc2ccc(S(=O)(=O)O)cc2c(=O)n1-c1ccc(C(=O)NN2C(=O)C(Cl)C2c2ccccc2O)cc1 (configuration not stated) ?
> 100 µM

And then NC1=NC(c2ccc(Cl)cc2)C2=C(N1)/C(=C/c1ccc(Cl)cc1)CCC2 (configuration not stated) , what is it?
> 56.1 µM

How about this compound: COC(=O)/C=C1\CCC(C)(C(=O)NS(=O)(=O)c2ccc(C)cc2)C1(C)C (configuration not stated)
> 100 µM

Another compound to look at: COc1ccc2c(c1)N=C1CSC(c3ccccc3Cl)N1C2 (configuration not stated)
> 100 µM

Same read-out for CCOc1nc(-c2ccccc2)cc(-c2ccc(N3CCOCC3)cc2)c1C#N ?
> 100 µM

---

Hi there, I'd appreciate the recorded TGI for every entry that follows.
System: HCC-2998 colon
assay: NCI tumour cell line growth inhibition, 48 h

Which TGI is reported with HCC-2998 colon for this entry: COc1ccc2c(c1)C(c1ccccc1Cl)=Nc1c(n[nH]c1C)N2 ?
> 25 µM

// same read-out, input: COc1ccc(-n2c3c(c4c(CN5CCOCC5)c(O)ccc42)CCc2ccccc2C3=O)cc1
> 100 µM

Repeat for the following molecule: C=CCSC1=N/C(=C\c2ccccc2)C(=O)N1CC=C
> 100 µM

Check Oc1[nH]c2ccccc2c1N=Nc1nc(-c2ccc(Cl)c(Cl)c2)cs1 too.
> 100 µM

Lookup O=C(OCc1ccccc1)C1(N2CN(C3(C(=O)OCc4ccccc4)CCCC3)CN(C3(C(=O)OCc4ccccc4)CCCC3)C2)CCCC1
> 10 µM

Then C(=C\c1ccccc1)/C=N/c1nc2cc3sc(/N=C/C=C/c4ccccc4)nc3cc2s1 ?
> 100 µM

Can you handle CC(=O)OC1(C)C(=O)OC1(C)C(C)=O (configuration not stated) next?
> 100 µM

---

Test system: SF-295 CNS
assay: NCI tumour cell line growth inhibition, 48 h
Would you mind telling me the reported TGI of each entry?

What does the data say about its TGI? Entry: N#CC1=C(N)NC(=O)NC12Nc1ccccc1S2 (stereo unspecified)
> 65.7 µM

O=C(O)c1ccc(N/C=C2\C(=O)c3ccccc3OC2O)cc1O (stereo unspecified) , same question.
28.7 µg/mL

Now the same for N#CCc1ncc(-c2ccc(C(F)(F)F)cc2)c(NC2CCCCCC2)n1
> 10 µM

Consider next the compound CCSC1=C(C)N(C=NC(C)(C)C)CC1 in the same way.
> 100 µM

Another compound to look at: CC(C)NC(=O)OCc1c(COC(=O)NC(C)C)c(-c2ccc(Cl)cc2)n2c1CCC2
10.6 µM

Follow-up item: COc1cccc2c1C(=O)c1c(O)c3c(c(O)c1C2=O)C[C@@](O)(C(=O)CO)C[C@@H]3OC1C[C@H](N)[C@H](O)[C@H](C)O1 (stereo partly specified)
0.372 µM

---

Tested on: NCI-H23 lung
assay: NCI tumour cell line growth inhibition, 48 h
Where a SMILES comes first, the peptide text is derived from it. The star is where a group is joined. Cbz = O=C(OCc1ccccc1)*; Boc = CC(C)(C)OC(=O)*; OBn = c1ccc(CO*)cc1
Assign TGI to each entry below.

Can you look up the measured TGI of C=C1C(=O)O[C@H]2[C@H]1CC/C(COC(=O)CSCC(=O)OC/C1=C/CC[C@@]3(C)O[C@H]3[C@H]3OC(=O)C(=C)[C@@H]3CC1)=C\CC[C@@]1(C)O[C@@H]21 for me?
7.07 µM

Also check COC(=O)C(Cc1ccc(O)cc1)NC(=O)C(CC(=O)OCc1ccccc1)NC(=O)OCc1ccccc1 (centres undefined) (Cbz-Asp(OBn)-Tyr-OMe; configuration not given here)
66.1 µM

Proceed to Cc1ccc2c(O)c(O)cc(NC(C)CCCN)c2n1 (centres undefined)
19.3 µM

// repeat for COc1ccccc1C#Cc1ccccc1C#CCCCCCC#Cc1ccccc1C#Cc1ccccc1OC and report
> 100 µM

How about COc1cc(/C=C2\N=C(c3ccccc3)N(c3nc4c(OC)ccc(OC)c4s3)C2=O)cc(OC)c1OC ?
> 100 µM

Request: COc1ccc(C(=O)c2cc3c(OC)c(OC)c(OC)cc3[nH]2)cc1
> 100 µM

And then Cc1cc(Cc2cc(C)cc(C(C)(C)C)c2O)c(O)c(C(C)(C)C)c1 , what is it?
16.3 µM

// query: CC(NC(=O)C(NC(=O)OC(C)(C)C)C(C)C)C(=O)N1CCCC1C(=O)NCC(=O)NC(C(=O)NCC(=O)OCc1ccccc1)C(C)C (centres undefined) (Boc-VAPGVG-OBn; configuration not given here)
> 100 µM

Here is the next compound: COc1ccc(N=N/C(=N/NC(=O)c2ccccc2)c2ccc(N(CCC#N)CCC#N)cc2C)cc1
> 100 µM
